Below is a list of entries, each paired with its recorded PBM binding z-score value.
Tested on: VDR homodimer (NR concentration 270 nM)
assay_text: PBM binding z-score (relative to random genomic background probes); higher = stronger binding; sequences stand for … in GC…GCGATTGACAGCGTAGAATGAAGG
// return a plain number; no unit text

> print(dat)
                        sequence.code  recorded.number
1  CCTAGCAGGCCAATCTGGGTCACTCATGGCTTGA          0.00452
2  CTCGAAAGGTCGTGCTCAGGTGCGTATACCAAAC             1.45
3  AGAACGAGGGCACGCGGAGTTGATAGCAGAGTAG             1.18
4  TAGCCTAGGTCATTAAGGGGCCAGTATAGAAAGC            0.937
5  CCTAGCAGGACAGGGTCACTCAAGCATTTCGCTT              1.5

Attention now shifts to the item below.
Q. What does the record list as PBM binding z-score for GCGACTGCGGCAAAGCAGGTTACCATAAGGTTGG ?
A. -0.315

---

Tested on: PPARg:RXRa DBDmut IVT, anti-RXR (DBD mutation: RXRa K156A/R161A, NR concentration 270 nM, RXRa partner concentration 90 nM)
assay_text: PBM binding z-score (relative to random genomic background probes); higher = stronger binding; sequences stand for … in GC…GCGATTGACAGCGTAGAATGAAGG
Below is a list of entries, each paired with its recorded PBM binding z-score value.
// return a plain number; no unit text

// worked examples, PBM binding z-score included
> print(dat)
                        sequence.code  recorded.number
1  CAAACCAGGTCACCGGAAGGTCAAAGTCCGCATG             5.78
2  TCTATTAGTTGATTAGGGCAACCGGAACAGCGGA             2.14
3  ATATGTAGGTTAAGGGTCATTCCGGTTGGTTCGC             7.18

Q. What does the record list as PBM binding z-score for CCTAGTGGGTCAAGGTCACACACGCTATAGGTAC ?
A. 6.82

Q. What does the record list as PBM binding z-score for AGTCATAGTTCAGGACGAGGTAACGTAAAGCACG ?
A. -0.922

---

Tested on: RARg:RXRa (NR concentration 270 nM, RXRa partner concentration 90 nM)
assay_text: PBM binding z-score (relative to random genomic background probes); higher = stronger binding; sequences stand for … in GC…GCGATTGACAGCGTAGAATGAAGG
Below is a list of entries, each paired with its recorded PBM binding z-score value.
// return a plain number; no unit text

// worked examples, PBM binding z-score included
> print(dat)
                        sequence.code  recorded.number
1  TCTTGTAAATCAACAGGAGGTTAAGAAAGATCGA            0.681
2  GAAGACAGGTGAAACGCAGGTAACTCAGGGTGGC            0.851
3  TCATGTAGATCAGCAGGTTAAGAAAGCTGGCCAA          -0.0908
4  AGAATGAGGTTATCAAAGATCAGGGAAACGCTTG             1.47
5  CCTCGCAGGACAACAGGAGGTCAGAGCTGCCAGA             2.79

Q. What does the record list as PBM binding z-score for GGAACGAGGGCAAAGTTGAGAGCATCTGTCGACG ?
A. 2.51

Q. What does the record list as PBM binding z-score for CAAACTAGGTCAAGAGGTCAACGTCCGCTTCCCG ?
A. 7.92

Q. What does the record list as PBM binding z-score for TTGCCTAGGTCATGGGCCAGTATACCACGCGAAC ?
A. 4.39

Q. What does the record list as PBM binding z-score for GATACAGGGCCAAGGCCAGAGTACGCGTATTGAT ?
A. 0.109

Q. What does the record list as PBM binding z-score for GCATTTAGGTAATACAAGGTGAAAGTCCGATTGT ?
A. 0.319

Q. What does the record list as PBM binding z-score for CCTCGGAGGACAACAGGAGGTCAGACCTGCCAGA ?
A. 3.39

---

Below is a list of entries, each paired with its recorded PBM binding z-score value.
Tested on: LXRa:RXRa (NR concentration 270 nM, RXRa partner concentration 90 nM)
assay_text: PBM binding z-score (relative to random genomic background probes); higher = stronger binding; sequences stand for … in GC…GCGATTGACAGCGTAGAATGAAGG
// return a plain number; no unit text

// worked examples, PBM binding z-score included
> print(dat)
                        sequence.code   measured.attribute  recorded.number
1  TCATATAAGTAAAGGTGAAAGTCGAACGATATGA  PBM binding z-score             1.25
2  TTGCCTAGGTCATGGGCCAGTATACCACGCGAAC  PBM binding z-score             3.43
3  CGTCCAAGGTCAAAGGTCAGTGGAGAGATGACGG  PBM binding z-score             6.91
4  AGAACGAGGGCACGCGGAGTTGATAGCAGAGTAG  PBM binding z-score            0.696
5  CGTCCAAGGTCAGCGAGGTCAGTGAATGCCGAGT  PBM binding z-score             5.26

Q. State its PBM binding z-score on LXRa:RXRa (NR concentration 270 nM, RXRa partner concentration 90 nM): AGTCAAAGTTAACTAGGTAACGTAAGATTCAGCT
A. 0.0304

Q. State its PBM binding z-score on LXRa:RXRa (NR concentration 270 nM, RXRa partner concentration 90 nM): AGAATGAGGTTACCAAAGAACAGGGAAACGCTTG
A. 5.18

Q. State its PBM binding z-score on LXRa:RXRa (NR concentration 270 nM, RXRa partner concentration 90 nM): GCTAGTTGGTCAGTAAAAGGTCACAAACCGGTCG
A. 3.78

Q. State its PBM binding z-score on LXRa:RXRa (NR concentration 270 nM, RXRa partner concentration 90 nM): CCTACTGGGCCATTCAGAGGTCATTGCTCATATG
A. 4.37

Q. State its PBM binding z-score on LXRa:RXRa (NR concentration 270 nM, RXRa partner concentration 90 nM): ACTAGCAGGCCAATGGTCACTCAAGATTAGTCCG
A. -0.42

Q. State its PBM binding z-score on LXRa:RXRa (NR concentration 270 nM, RXRa partner concentration 90 nM): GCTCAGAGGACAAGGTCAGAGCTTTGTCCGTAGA
A. 1.73

Q. State its PBM binding z-score on LXRa:RXRa (NR concentration 270 nM, RXRa partner concentration 90 nM): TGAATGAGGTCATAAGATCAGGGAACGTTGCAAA
A. 5.47

---

Test system: RARg:RXRa (NR concentration 270 nM, RXRa partner concentration 90 nM)
assay_text: PBM binding z-score (relative to random genomic background probes); higher = stronger binding; sequences stand for … in GC…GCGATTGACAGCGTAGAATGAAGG
Record Y whenever PBM binding z-score is at 2 or higher; record N when lower.

> print(dat)
                        sequence.code  class.assignment
1  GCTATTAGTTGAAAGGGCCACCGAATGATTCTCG                 N
2  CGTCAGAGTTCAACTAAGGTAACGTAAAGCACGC                 Y
3  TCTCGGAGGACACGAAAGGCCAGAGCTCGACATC                 N

Q. Please indicate if the recorded PBM binding z-score for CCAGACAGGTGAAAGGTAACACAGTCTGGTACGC meets or exceeds 2.
A. N

Q. Please indicate if the recorded PBM binding z-score for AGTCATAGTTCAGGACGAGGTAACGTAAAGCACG meets or exceeds 2.
A. Y

Q. Please indicate if the recorded PBM binding z-score for TATACAGGGTCAAAGGACAGAGTACGAATGTCGA meets or exceeds 2.
A. Y

---

System: PPARg:RXRa 90nM:30nM, anti-RXR (NR concentration 90 nM, RXRa partner concentration 30 nM)
assay_text: PBM binding z-score (relative to random genomic background probes); higher = stronger binding; sequences stand for … in GC…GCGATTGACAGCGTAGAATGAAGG
measured_attribute: PBM binding z-score
// return a plain number; no unit text

// worked examples, PBM binding z-score included
> print(dat)
                        sequence.code  recorded.number
1  AGAATGAGGTTATTAAGGTCAGGGAATTGCGGTC             3.18
2  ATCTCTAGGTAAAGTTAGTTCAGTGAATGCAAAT             1.03
3  CCTTACGGGTCAAGGTTATAGGACGGGTGGTACG             3.36
4  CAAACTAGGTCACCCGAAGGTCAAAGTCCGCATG              7.5
5  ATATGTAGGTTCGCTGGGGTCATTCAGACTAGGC             2.91

Q. What does the record list as PBM binding z-score for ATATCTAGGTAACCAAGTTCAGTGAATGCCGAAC ?
A. 2.32

Q. What does the record list as PBM binding z-score for ATCTCTAGGTAACCACGTTCAGTGAATGCCGAAC ?
A. 0.0954

Q. What does the record list as PBM binding z-score for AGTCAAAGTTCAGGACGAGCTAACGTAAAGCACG ?
A. 4.19

Q. What does the record list as PBM binding z-score for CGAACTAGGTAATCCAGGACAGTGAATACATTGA ?
A. 0.507

Q. What does the record list as PBM binding z-score for CTCGAAAGGTCGTGCTCTGGTGAGTATACCAAAC ?
A. 2.12

Q. What does the record list as PBM binding z-score for CGAACGAGGGCATGAGTTGATAGTAAATGCCGAT ?
A. 0.578

Q. What does the record list as PBM binding z-score for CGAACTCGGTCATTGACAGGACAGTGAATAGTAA ?
A. 0.0163

Q. What does the record list as PBM binding z-score for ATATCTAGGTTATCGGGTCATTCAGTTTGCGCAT ?
A. 6.24

Q. What does the record list as PBM binding z-score for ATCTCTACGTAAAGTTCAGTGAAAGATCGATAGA ?
A. 1.96

Q. What does the record list as PBM binding z-score for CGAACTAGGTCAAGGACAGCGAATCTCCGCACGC ?
A. 5.68

Q. What does the record list as PBM binding z-score for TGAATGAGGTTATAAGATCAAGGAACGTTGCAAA ?
A. 1.89

Q. What does the record list as PBM binding z-score for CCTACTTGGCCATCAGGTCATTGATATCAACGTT ?
A. 1.13

Q. What does the record list as PBM binding z-score for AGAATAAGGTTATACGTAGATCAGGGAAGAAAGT ?
A. 1.04
